Tested on: SK-MEL-5 melanoma
Test: NCI tumour cell line growth inhibition, 48 h
MEASUREMENT KIND: TGI (µM)
Provide the reading as a plain figure in µM.

Use these answered entries as a reference point.
SMILES: CCOP(=O)(OCC)c1c(C(=O)OC)cc(=O)[nH]c1-c1ccc(C)cc1
SYSTEM TESTED: SK-MEL-5 melanoma
TGI, µM: 28.8
//
SMILES: COc1cc2cccc(N=Cc3cccc(OC)c3OC(C)C)c2cc1OC
SYSTEM TESTED: SK-MEL-5 melanoma
TGI, µM: 53.9
//
SMILES: CC(C)C(=O)/C=C/c1ccc(Br)cc1
SYSTEM TESTED: SK-MEL-5 melanoma
TGI, µM: 26.6
//
SMILES: COc1ccc2c(c1)[C@@]13CCCC[C@H]1[C@@H](C2)N(C)CC3=O
SYSTEM TESTED: SK-MEL-5 melanoma
TGI, µM: 61

For the next question, use this compound.
# CC(C)S(=O)(=O)c1ccccc1Nc1nc(Nc2cccc(NC(=O)CN)c2)ncc1Cl with SK-MEL-5 melanoma: TGI is 0.894

----------
Test system: HL-60(TB) leukemia
Assay: NCI tumour cell line growth inhibition, 48 h
Where a SMILES comes first, the peptide text is derived from it. The star is where a group is joined. X36 = O=C(c1ccc(-c2ccc(Cl)cc2Cl)o1)*
Here, each record is paired with measured TGI data.

Use these answered entries as a reference point.
COMPOUND: O=c1c2c([N+](=O)[O-])cccc2nc2[nH]c3ccccc3n12
RESULT: > 75 µM
//
COMPOUND: Cc1c(C2=C(Br)C(=O)N(C)C2=O)c(=O)n(C)c(=O)n1C
RESULT: 41 µM
//
COMPOUND: CN[C@@H](C)[C@H](NC)c1ccccc1
RESULT: > 100 µM
//
COMPOUND: CCCSc1ccc2[nH]c(/N=C/c3ccco3)cc2c1
RESULT: 84.4 µM
//
COMPOUND: O=C(Cc1ccccc1)NN1C(=O)C(Cl)C1c1ccc(O)cc1 (centres undefined)
RESULT: > 100 µM

# Nc1c(Cl)ncnc1N[C@@H]1C[C@H]1CO with HL-60(TB) leukemia: TGI is > 100 µM

# COc1cccc(C2CC(C)=Nc3c(ccc4c3C(=O)c3ccccc3C4=O)N2)c1O (centres undefined) with HL-60(TB) leukemia: TGI is > 100 µM

# Cc1cc(I)cc(CN(C)CCCN2CCOCC2)c1O with HL-60(TB) leukemia: TGI is 72 µM

# COc1ccc(-c2ccc(/C=N/n3c(C)n[nH]c3=S)o2)c([N+](=O)[O-])c1 with HL-60(TB) leukemia: TGI is > 100 µM

# CCn1nc2c3c(ncn3C(C)(C)O2)c1=O with HL-60(TB) leukemia: TGI is > 100 µM

# O=C(Nc1cc(Cl)ccc1Cl)C(=O)C(c1cnc2ccccc2n1)[N+](=O)[O-] (centres undefined) with HL-60(TB) leukemia: TGI is > 100 µM

# CN(C)C(=S)/N=c1\ss/c(=N\C(=S)N(C)C)n1-c1ccc(Cl)c(Cl)c1 with HL-60(TB) leukemia: TGI is > 100 µM

# Cc1ccn2c(=O)cc(-c3ccccc3)nc2c1 with HL-60(TB) leukemia: TGI is > 100 µM

# NCCSc1nc2ccccc2c(=O)n1-c1ccccc1 with HL-60(TB) leukemia: TGI is 90.7 µM

# CCC(C)C(NC(=O)CNC(=O)C(Cc1ccccc1)NC(=O)C1CCCN1C(=O)c1ccc(-c2ccc(Cl)cc2Cl)o1)C(=O)OC (centres undefined) (X36-PFGI-OMe; configuration not given here) with HL-60(TB) leukemia: TGI is > 100 µM

# COc1ccc(O)cc1 with HL-60(TB) leukemia: TGI is > 100 µM

# CCOC(=O)/C1=C(\C)N(c2ccc(C)cc2)C(=O)c2ccccc2C(=O)c2c(OC(C)=O)ccc(OC(C)=O)c21 with HL-60(TB) leukemia: TGI is 54.4 µM

# COc1ccc(OC)c2c(/C=C/c3ccc(N(C)C)cc3)ccnc12 with HL-60(TB) leukemia: TGI is 3.86 µM

# CCC(C)(C)c1ccc(OCCCCCCN2CCNCC2)cc1 with HL-60(TB) leukemia: TGI is 3.65 µM

# C=CCCC(=O)CC(O)(C(F)(F)F)C(F)(F)F with HL-60(TB) leukemia: TGI is > 100 µM

# COC(=O)/C(C#N)=C1\CCC(O)N1 (centres undefined) with HL-60(TB) leukemia: TGI is > 100 µM

# O=C1[C@H]2ON(c3ccccc3)C(c3ccc(Cl)cc3)[C@H]2C(=O)N1c1ccc(Cc2ccc(N3C(=O)[C@@H]4ON(c5ccccc5)C(c5ccc(Cl)cc5)[C@@H]4C3=O)cc2)cc1 (some centres undefined) with HL-60(TB) leukemia: TGI is > 100 µM

# COc1ccc2c(c1)C(C)Cc1c(ncnc1-n1c(C)nc3ccccc31)N2C (centres undefined) with HL-60(TB) leukemia: TGI is 9.7 µM

# COc1ccc(Nc2c3ccccc3nc3occ(Cl)c23)cc1 with HL-60(TB) leukemia: TGI is 0.547 µM

# CC12CCCCC1(C)C2Sc1ccccc1 (centres undefined) with HL-60(TB) leukemia: TGI is 36.9 µM

----------
Tested on: HS 578T breast
Test: NCI tumour cell line growth inhibition, 48 h
MEASUREMENT KIND: TGI

Use these answered entries as a reference point.
COMPOUND: Cc1ccc2nc(Cl)c(/C=N/N3C(=O)/C(=C/c4ccccc4S)N=C3c3ccccc3)cc2c1
SYSTEM TESTED: HS 578T breast
RESULT: 58 µM

COMPOUND: NC(CS/C(Cl)=C/Cl)C(=O)O (stereo unspecified)
SYSTEM TESTED: HS 578T breast
RESULT: > 100 µM

COMPOUND: O=C(/C=C/c1cc(CN2CCOCC2)c(O)c2ncccc12)c1cc(CN2CCOCC2)c(O)c2ncccc12
SYSTEM TESTED: HS 578T breast
RESULT: > 100 µM

COMPOUND: COc1ccc(C(=O)COc2cccc(/C=C3\Oc4ccc5ccccc5c4C3=O)c2)cc1
SYSTEM TESTED: HS 578T breast
RESULT: 25.8 µM

COMPOUND: COc1ccc2[nH]c3c4c(ccc3c2c1)C(=O)C=CC4=O
SYSTEM TESTED: HS 578T breast
RESULT: 71.5 µM

COMPOUND: C[C@]12CC[C@H](O)C[C@H]1CC[C@@H]1[C@@H]2CC[C@]2(C)[C@@H](C3=CC(=O)OC3)CC[C@]12O
SYSTEM TESTED: HS 578T breast
RESULT: > 100 µM

COMPOUND: CC1(CF)SCc2nc3ccccc3n21 (stereo unspecified)
SYSTEM TESTED: HS 578T breast
RESULT: > 100 µM

COMPOUND: Cc1ccc(S(=O)(=O)NCCNc2nccc(-c3c(-c4ccc(F)cc4)nc4sccn34)n2)cc1
SYSTEM TESTED: HS 578T breast
RESULT: 75.5 µM

// sample COc1cccc(/C(COc2ccc3c(c2)oc(=O)c2cc(OC)ccc23)=N/O)c1 , its TGI was > 100 µM

// sample C[C@H](N)C(=O)Nc1ccc(-c2nc3ccccc3s2)cc1 , its TGI was > 100 µM

// sample O=c1[nH]cnc2cccc(Cl)c12 , its TGI was > 100 µM

// sample CC1=NN(c2ccc(S(=O)(=O)O)cc2)C2(C1)SCC(=O)N2c1nc2ccccc2s1 (stereo unspecified) , its TGI was > 100 µM

// sample N#CC(=NCCO)C1=C(O)c2ccccc2C1=O , its TGI was > 100 µM

// sample Cc1ccn2c(=O)cc(-c3ccccc3)nc2c1 , its TGI was > 100 µM

// sample COc1ccc(-c2c[nH]c(=S)n2-c2ccc(OC)cc2)cc1 , its TGI was > 50 µM

----------
Tested on: HS 578T breast
Experiment: NCI tumour cell line growth inhibition, 48 h; in the data active means GI50 below about 0.43 µM; inactive means the rest
Valid outcomes are listed here; reply with one: active, inactive

Worked cases, answers included:
SMILES: C[C@]12CCc3nc(Nc4ccccc4)sc3C1=CC[C@@H]1[C@@H]2CC[C@]2(C)/C(=N/NC(N)=S)CC[C@@H]12
ASSIGNED CATEGORY: inactive

SMILES: COc1ccc(-c2oc3cc(O)c(OC)c(O)c3c(=O)c2OC)cc1O
ASSIGNED CATEGORY: active

SMILES: COc1cc(C2=C(c3cn(C)c4ccccc34)COC2=O)cc(OC)c1OC
ASSIGNED CATEGORY: active

SMILES: Oc1cn(-c2ccc(Cl)cc2)nc1-c1n[nH]c(=S)n1C1CCCCC1
ASSIGNED CATEGORY: active

SMILES: C=C1C(=O)O[C@H]2[C@H]1CC/C(COC(=O)c1ccc(Cl)nc1)=C\CC[C@@]1(C)O[C@@H]21
ASSIGNED CATEGORY: inactive

Attention now shifts to the item below.
In this assay, the call recorded for Cn1cc(C2=C(c3cn(CCCCCN)c4ccccc34)C(=O)NC2=O)c2ccccc21 was what?
inactive

Numbers sourced from PubChem BioAssay (NCI).
